test system: PC-3 prostate; assay: NCI-60 one-dose screen, 48 h (100 = growth as untreated, 0 = no growth, -100 = all killed); conditions: 10 µM unless noted
About 83,000 compounds went through this panel and 20% of them were active in at least one assay; those are over-represented in the sample as a whole.
Measured Property: growth (%)
Please state the figure in %; there is no need to write the unit.

Q: Request body: readout growth, system PC-3 prostate, query "CCCCCCCCCCCCCCCCCCOc1ccccc1COP(=O)(O)OOCC[N+](C)(C)C" . Return the value.
A: -25.5

Q: growth of "CCOC(=O)c1c(C)n(Cc2ccccc2)c2cc(CN(C)C)c(O)cc12" on PC-3 prostate?
A: 57.4

* * *

test system: OVCAR-5 ovarian; assay: NCI-60 one-dose screen, 48 h (100 = growth as untreated, 0 = no growth, -100 = all killed); details: 10 µM unless noted
About 83,000 compounds went through this panel and 20% of them were active in at least one assay; those are over-represented in the sample as a whole.
// classify: if (growth < 80%) met else not met

Use the examples below as a reference point.
CN1CCCCC1C(C)(O)c1ccccc1 (stereo not given) = not met
COc1cc(/C=C/[N+](=O)[O-])cc(OC)c1 = met
ClC1=C(Cl)C(Cl)(C2(Cl)C(Cl)=C(Cl)C(Cl)=C2Cl)C(Cl)=C1Cl = met
CC(C)[C@]12O[C@H]1[C@@H]1O[C@]13[C@]1(O[C@H]1C[C@H]1c4c(C(=O)c5ccccc5)oc(OC(=O)c5ccccc5)c4CC[C@@]13C)[C@@H]2O = met
Cc1ccccc1NC(=NCCCN1CC1)Nc1ccccc1C = not met

Q: Decide: growth of "COc1ccc(O)c(CNC(=O)CN2CCCC2=O)c1" strictly below 80%?
A: not met

Q: Does the reported growth of the following compound sit strictly below 80%? CC(C)(C)C(=O)OCOP(=O)(OCOC(=O)C(C)(C)C)C1CCCN(O)C1=O (stereo not given)
A: met

Q: Record "O=C(CCCCCCC(=O)Nc1ccc(N(CCCl)CCCl)cc1)NO" : is its growth strictly below 80%?
A: met

Q: Dear reviewer, please state whether CC(=O)OC1CCC2(C)C(CCC3C2CC(=O)C2(C)C3CC(Sc3ccc(N(CCCl)CCCl)cc3)C2C(C)=O)C1 (stereo not given) has growth strictly beneath 80%.
A: not met

* * *

test system: K-562 leukemia; test: NCI-60 one-dose screen, 48 h; conditions: 10 µM unless noted
This is part of a sample that, as a whole, favours compounds with a hit. Of some 83,000 tested, about 20% had one in any assay. Active and inactive are the calls of the source. How the source made its calls: active means growth percent below 10; inactive means the rest.
Form entry, call: pick from class 1 (active), class 0 (inactive)

Cc1c(NS(=O)(=O)c2ccccc2)ccc([N+](=O)[O-])c1Cl = class 0

Q: In this assay, the call recorded for "COC(=O)[C@@H](C[C@H](Cc1ccccc1)NC(=O)c1csc([C@@H](C[C@H](C(C)C)N(C)C(=O)[C@@H](NC(=O)[C@H]2CCCCN2C)C(C)C)OC(C)=O)n1)NC(=O)OCc1ccccc1" was what?
A: class 1

Q: Look up the recorded call for "COC(=O)[C@@H](C)C[C@H](Cc1ccccc1)NC(=O)c1csc([C@@H](C[C@H](C(C)C)N(C)C(=O)[C@H](C)NC(=O)[C@H]2CCCN2C)OC(C)=O)n1" in this test.
A: class 0

Q: Identify the outcome logged in this assay for the compound shown: "COC(=O)[C@@H](C)C[C@H](Cc1ccccc1)NC(=O)c1csc([C@@H](C[C@H](C(C)C)N(C)C(=O)[C@@H](NC(=O)CN(C)C)C2CC2)OC(C)=O)n1"
A: class 1

Q: Any idea what this test logged for "COc1ccc2c(c1)c(-c1nc(-c3c[nH]c4ncccc34)cs1)cn2CCN1CCOCC1" ?
A: class 0

Q: Hi team, can someone confirm the assay call for CCCCCCCCC(CO)NCCc1ccccc1 (stereo not drawn) ?
A: class 0

Q: Test call for this compound, please: "O=C([O][Hg][c]1ccccc1)c1ccccc1"
A: class 1

Q: Each compound tested received a call. Report the one for "C/C(=C\c1ccn(-c2ccc(N)cc2C(F)(F)F)n1)[C@@H]1C[C@@H]2O[C@]2(C)CCC[C@H](C)[C@H](O)[C@@H](C)C(=O)C(C)(C)[C@@H](O)CC(=O)O1" .
A: class 1

Q: Could you please tell me the result logged for O=[N+]([O-])CC(c1ccccc1Cl)c1c(-c2ccccc2)[nH]c2ccccc12 (stereo not drawn) in this assay?
A: class 0
